Recorded cell viability, one value per entry.
Test system: NOMO1
method.summary: cell viability relative to DMSO control; higher = less cytotoxic
measurement.parameters: RPMI 5 mM glucose + 10% FBS; 48 h; 0.569 µM
# output: bare number, implied unit %

Example cases with answers are listed next.
compound=NC[C@@H]1O[C@H](O[C@H]2[C@@H](O)[C@H](O[C@@H]3[C@@H](O)[C@H](N)C[C@H](N)[C@H]3O[C@H]3O[C@H](CN)[C@@H](O)[C@H](O)[C@H]3N)O[C@@H]2CO)[C@H](N)[C@@H](O)[C@@H]1O.O=S(=O)(O)O.O=S(=O)(O)O.O=S(=O)(O)O experimental_readout="cell viability" reading=96.8
compound="CCOC(=O)C(C#N)C\\1C2=CC(=CC=C2O\\C(=C1C(=O)OCC)N)Br (configuration not stated)" experimental_readout="cell viability" reading=107

Prompt: Report cell viability for CCn1c(-c2nonc2N)nc2c(C#CC(C)(C)O)ncc(OC[C@H]3CCCNC3)c21 please.
Response: 81

Prompt: And what about the compound CCN1\C=C(\C(O)=O)C(=O)C2=C1N=C(N3CCNCC3)C(=C2)F ?
Response: 79

Prompt: Next record, please: NC(=O)[C@H]1CCS[C@@H]2C[C@]3(CCCN3C(=O)Cc3ccc(NC(=O)COc4ccc(Cl)cc4Cl)cc3)C(=O)N12
Response: 119

Prompt: Try this compound next: COc1cc2ncn(-c3cc(OCc4ccccc4[S+](C)(=O)[O-])c(C#N)s3)c2cc1OC
Response: 103

Prompt: Same again, this time with COc1cc(Nc2c(C#N)cnc3cc(OCCCN4CCN(C)CC4)c(OC)cc23)c(Cl)cc1Cl
Response: 112

Prompt: Request: CCN(CCO)CCCOc1ccc2c(Nc3cc(CC(=O)Nc4cccc(F)c4)[nH]n3)ncnc2c1
Response: 50.5

Prompt: Now the same for O=C([O-])C[C@H](O)C[C@H](O)/C=C/c1c(C2CC2)nc2ccccc2c1-c1ccc(F)cc1
Response: 116

Prompt: Okay, and N#C/C(=C\c1ccc(O)c(O)c1)C(=O)NCc1ccccc1 ?
Response: 86.7

Prompt: Please give the result for CC[C@@H]1[C@@H](C)O[C@@](O)([C@@H](C)[C@H](O)[C@H](C)[C@H]2OC(=O)/C=C/C=C/[C@H](C)[C@@H]([C@@H](C)[C@@H](O)[C@H](C)[C@@]3(O)C[C@@H](O[C@H]4C[C@H](O)[C@H](O)[C@H](C)O4)[C@H](CC)[C@@H](C)O3)OC(=O)/C=C/C=C/[C@@H]2C)C[C@H]1O[C@H]1C[C@H](O)[C@H](O)[C@H](C)O1 too.
Response: 128

Prompt: Another compound to look at: C[C@@H]1O[C@@H](O[C@H]2C[C@@H](O)[C@]3(CO)[C@H]4[C@H](O)C[C@]5(C)[C@@H](C6=CC(=O)OC6)CC[C@]5(O)[C@@H]4CC[C@]3(O)C2)[C@H](O)[C@H](O)[C@H]1O
Response: 13.6
